testDetails: CHI Log D procedure
Format: physicochemical
appliedConditions: pH 7.4, CHI Log D

# compound, chromatographic logD
measured = [
    ("CC(=O)N1CCC[C@]12CC=CCCCC1(CCCC=CCCCCCC[C@@](C)(C(=O)N[C@@H](Cc3ccccc3)C(=O)N[C@@H](Cc3csc4ccccc34)C(=O)N[C@@H](Cc3c[nH]cn3)C(N)=O)NC(=O)[C@H](CC(N)=O)NC(=O)[C@H](Cc3ccccc3)NC(=O)[C@H](C)NC(=O)[C@H](C)NC(=O)[C@H](CCC(=O)O)NC(=O)[C@H](CC(=O)O)NC1=O)NC(=O)[C@H](CC1CCCCC1)NC(=O)[C@H](CC(=O)O)NC2=O (some centres unmarked)", 2.83),
    ("CC(=O)N[C@@H](Cc1ccccc1)C(=O)N[C@@H](CC(=O)O)C(=O)N[C@@H](C)C(=O)N[C@]1(C)CCCCCCC=CCOC(=O)N2CC[C@@](C(=O)N[C@@H](Cc3ccccn3)C(=O)N[C@@H](Cc3c[nH]c4ccccc34)C(=O)N[C@@H](CCC(N)=O)C(N)=O)(C2)NC(=O)[C@H](C(C)C)NC(=O)[C@H](Cc2ccccc2)NC(=O)[C@H](C)NC(=O)[C@H](C)NC(=O)[C@H](CC(=O)O)NC(=O)[C@H](CC(=O)O)NC1=O (single isomer, unassigned)", 1.04),
    ("CC(=O)N1CCC[C@]12CC=CCCCC1(CCCC=CCCCOC(=O)N3CC[C@@](C(=O)N[C@@H](Cc4cccs4)C(=O)N[C@@H](Cc4csc5ccccc45)C(=O)N[C@@H](CCC(N)=O)C(N)=O)(C3)NC(=O)[C@H](CC(N)=O)NC(=O)[C@H](Cc3ccccc3)NC(=O)[C@H](C)NC(=O)[C@H](C)NC(=O)[C@H](CC(=O)O)NC(=O)[C@H](CC(=O)O)NC1=O)NC(=O)[C@H](CC(C)(C)C)NC(=O)[C@H](CC(=O)O)NC2=O (some centres unmarked)", 2.04),
    ("CC(=O)N1CCC[C@]12CC=CCCCC1(CCCC=CCCCCCC[C@@](C)(C(=O)N[C@@H](Cc3ccccc3)C(=O)N[C@@H](Cc3ccc4ccccc4c3)C(=O)N[C@@H](CCC(N)=O)C(N)=O)NC(=O)[C@H](C(C)C)NC(=O)[C@H](Cc3ccccc3)NC(=O)[C@H](C)NC(=O)[C@H](C)NC(=O)[C@H](CCC(=O)O)NC(=O)[C@H](CC(=O)O)NC1=O)NC(=O)[C@H](C)NC(=O)[C@H](CC(=O)O)NC2=O (some centres unmarked)", 2.19),
    ("CC(=O)N1CCC[C@]12CC=CCCCC1(CCCC=CCCCOC(=O)N3CC[C@@](C(=O)N[C@@H](Cc4ccsc4)C(=O)N[C@@H](Cc4c[nH]c5cc(Cl)ccc45)C(=O)N[C@@H](Cc4c[nH]cn4)C(N)=O)(C3)NC(=O)[C@H](CC(N)=O)NC(=O)[C@H](Cc3ccccc3)NC(=O)[C@H](C)NC(=O)[C@H](C)NC(=O)[C@H](CC(=O)O)NC(=O)[C@H](CC(=O)O)NC1=O)NC(=O)[C@H](CC(C)(C)C)NC(=O)[C@H](CC(=O)O)NC2=O (some centres unmarked)", 2.07),
]

###

target: full-length beta-Catenin (Uniprot ID P35222) (Homo sapiens)
Construct: 10 nM full-length beta-Catenin (Uniprot ID P35222)
Sequence (P35222 whole entry): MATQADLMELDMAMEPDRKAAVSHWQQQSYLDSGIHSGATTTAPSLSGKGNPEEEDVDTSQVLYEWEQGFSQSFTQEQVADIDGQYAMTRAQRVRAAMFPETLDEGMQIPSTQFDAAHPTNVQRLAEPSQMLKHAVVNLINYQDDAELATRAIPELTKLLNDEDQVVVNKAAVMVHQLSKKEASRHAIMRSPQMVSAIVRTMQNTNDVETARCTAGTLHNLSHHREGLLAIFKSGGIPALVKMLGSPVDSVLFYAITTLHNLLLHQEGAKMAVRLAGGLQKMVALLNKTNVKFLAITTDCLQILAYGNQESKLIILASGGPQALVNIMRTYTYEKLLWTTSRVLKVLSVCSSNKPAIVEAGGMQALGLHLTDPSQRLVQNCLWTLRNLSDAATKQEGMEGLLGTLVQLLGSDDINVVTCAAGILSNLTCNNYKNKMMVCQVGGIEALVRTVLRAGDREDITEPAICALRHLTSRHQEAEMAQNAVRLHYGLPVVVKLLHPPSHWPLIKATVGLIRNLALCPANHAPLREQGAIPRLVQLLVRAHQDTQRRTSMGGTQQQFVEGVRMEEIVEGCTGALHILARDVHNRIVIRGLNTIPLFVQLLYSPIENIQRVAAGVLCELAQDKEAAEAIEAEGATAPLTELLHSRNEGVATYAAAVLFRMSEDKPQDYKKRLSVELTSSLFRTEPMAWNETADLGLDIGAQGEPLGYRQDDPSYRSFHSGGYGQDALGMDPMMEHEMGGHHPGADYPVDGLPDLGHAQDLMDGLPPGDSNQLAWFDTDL
testDetails: Fluorescence polarization IC50 (beta-catenin / 5FAM-TCF4 10-53 competition)
Format: binding
appliedConditions: fluorescence polarization; read-out: beta-Catenin FP IC50
measuredQuantity: log10 IC50 (log10 of the value in nM)

# compound, log10 IC50
rows = [
    ("COc1ccccc1C[C@H](NC(=O)[C@]1(C)CCCCCCC=CCCCC2(CCCC=CC[C@]3(CCCN3C(C)=O)C(=O)N[C@@H](CC(=O)O)C(=O)N[C@@H](C)C(=O)N2)C(=O)N[C@@H](CC(=O)O)C(=O)N[C@@H](CCC(=O)O)C(=O)N[C@@H](C)C(=O)N[C@@H](C)C(=O)N[C@@H](Cc2ccccc2)C(=O)N[C@@H](CC(N)=O)C(=O)N1)C(=O)N[C@@H](Cc1csc2ccccc12)C(=O)N[C@@H](CCC(N)=O)C(N)=O (stereo partly shown)", 1.41),
    ("CC(=O)N1CCC[C@]12CC=CCCCC1(CCCC=CCCCOC(=O)N3CC[C@@](C(=O)N[C@@H](Cc4ccsc4)C(=O)N[C@@H](Cc4ccc5ccccc5c4)C(=O)N[C@@H](CCC(N)=O)C(N)=O)(C3)NC(=O)[C@H](CC(N)=O)NC(=O)[C@H](Cc3ccccc3)NC(=O)[C@H](C)NC(=O)[C@H](C)NC(=O)[C@H]([C@@H](C)O)NC(=O)[C@H](CC(N)=O)NC1=O)NC(=O)[C@H](CC(C)(C)C)NC(=O)[C@H](CC(=O)O)NC2=O (stereo partly shown)", 3.17),
    ("CCCC[C@@H]1NC(=O)[C@H](CC(=O)O)NC(=O)[C@]2(CC=CCCCC3(CCCC=CCCCOC(=O)N4CC[C@@](C(=O)N[C@@H](Cc5ccccc5)C(=O)N[C@@H](Cc5csc6ccccc56)C(=O)N[C@@H](CCC(N)=O)C(N)=O)(C4)NC(=O)[C@H](CCCC)NC(=O)[C@H](Cc4ccccc4)NC(=O)[C@H](C)NC(=O)[C@H](C)NC(=O)[C@H](CC(=O)O)NC(=O)[C@H](CC(=O)O)NC3=O)NC1=O)CCCN2C(C)=O (stereo partly shown)", 0.95),
    ("CC(=O)N1CCC[C@]12CC=CCCCC1(CCCC=CCCCCCC[C@@](C)(C(=O)N[C@@H](Cc3ccccc3)C(=O)N[C@@H](Cc3csc4ccccc34)C(=O)N[C@@H](CCC(N)=O)C(N)=O)NC(=O)[C@H](CCO)NC(=O)[C@H](Cc3ccccc3)NC(=O)[C@H](C)NC(=O)[C@H](C)NC(=O)[C@H](CC(=O)O)NC(=O)[C@H](CC(=O)O)NC1=O)NC(=O)[C@H](CC(C)(C)C)NC(=O)[C@H](CC(=O)O)NC2=O (stereo partly shown)", 1.26),
    ("CC(=O)N1CCC[C@]12CCCCC1(CCCCCCOC(=O)N3CC[C@@](C(=O)N[C@@H](Cc4ccsc4)C(=O)N[C@@H](Cc4csc5ccccc45)C(=O)N[C@@H](CCC(N)=O)C(N)=O)(C3)NC(=O)[C@H](CC(C)C)NC(=O)[C@H](Cc3ccccc3)NC(=O)[C@H](C)NC(=O)[C@H](C)NC(=O)[C@H](CC(=O)O)NC(=O)[C@H](CC(=O)O)NC1=O)NC(=O)[C@H](CC(C)(C)C)NC(=O)[C@H](CC(=O)O)NC2=O (stereo partly shown)", 3.09),
    ("CCC(C)N(CC(=O)O)C[C@@H]1NC(=O)[C@H](CC(=O)O)NC(=O)C2(CCCC=CCCCCCC[C@@](C)(C(=O)N[C@@H](Cc3ccsc3)C(=O)N[C@@H](Cc3csc4ccccc34)C(=O)N[C@@H](CCC(N)=O)C(N)=O)NC(=O)[C@H](CC(N)=O)NC(=O)[C@H](Cc3ccccc3)NC(=O)[C@H](C)NC(=O)[C@H](C)NC1=O)CCCC=CC[C@]1(CCCN1C(C)=O)C(=O)N[C@@H](CC(=O)O)C(=O)N[C@@H](CC(C)(C)C)C(=O)N2 (stereo partly shown)", 2.86),
    ("CC(=O)N1CCC[C@]12CC=CCCCC1(CCCC=CCCCCCC[C@@](C)(C(=O)N[C@@H](Cc3ccsc3)C(=O)N[C@@H](Cc3csc4ccccc34)C(=O)N[C@@H](CCC(N)=O)C(N)=O)NC(=O)[C@H](CC(N)=O)NC(=O)[C@H](Cc3ccccc3)NC(=O)[C@H](C)NC(=O)[C@H](C)NC(=O)[C@H]([C@@H](C)O)NC(=O)[C@H](CC(N)=O)NC1=O)NC(=O)[C@H](CC(C)(C)C)NC(=O)[C@H](CC(=O)O)NC2=O (stereo partly shown)", 2.88),
    ("CC(=O)N1CCC[C@]12CC=CCCCC1(CCCC=CCCCOC(=O)N3CC[C@@](C(=O)N[C@@H](Cc4ccccc4Cl)C(=O)N[C@@H](Cc4csc5ccccc45)C(=O)N[C@@H](CO)C(N)=O)(C3)NC(=O)[C@H](CC(C)C)NC(=O)[C@H](Cc3ccccc3)NC(=O)[C@H](C)NC(=O)[C@H](C)NC(=O)[C@H](Cc3ccccc3C(=O)O)NC(=O)[C@H](CC(=O)O)NC1=O)NC(=O)[C@H](CC(C)(C)C)NC(=O)[C@H](CC(=O)O)NC2=O (stereo partly shown)", 1.83),
    ("CC(=O)N1CCC[C@H]1C(=O)N[C@@H](CC(=O)O)C(=O)N[C@@H](CC(C)(C)C)C(=O)N[C@]1(C)CCCCCCCCCOC(=O)N2CC[C@@](C(=O)N[C@@H](Cc3ccsc3)C(=O)N[C@@H](Cc3csc4ccccc34)C(=O)N[C@@H](CCC(N)=O)C(N)=O)(C2)NC(=O)[C@H](CC(C)C)NC(=O)[C@H](Cc2ccccc2)NC(=O)[C@H](C)NC(=O)[C@H](C)NC(=O)[C@H](CC(=O)O)NC(=O)[C@H](CC(=O)O)NC1=O", 2.60),
    ("CC(=O)N1CCC[C@]12CC=CCCCC1(CCCC=CCCCOC(=O)N3CC[C@@](C(=O)N[C@@H](Cc4ccsc4)C(=O)N[C@@H](Cc4csc5ccccc45)C(=O)N[C@@H](CCC(N)=O)C(N)=O)(C3)NC(=O)[C@H](CC(C)C)NC(=O)[C@H](Cc3ccccc3)NC(=O)[C@H](C)NC(=O)[C@H](C)NC(=O)[C@H](CCN(CC(=O)O)C(=O)c3ccc(CN4CCOCC4)cc3)NC(=O)[C@H](CC(=O)O)NC1=O)NC(=O)[C@H](CC(C)(C)C)NC(=O)[C@H](CC(=O)O)NC2=O (stereo partly shown)", 0.90),
]
